- Test system: CAKI-1 renal
- Protocol details: NCI tumour cell line growth inhibition, 48 h
Reported values of TGI for individual entries

# count of solved cases: 2
Field request: TGI | item: "CC1(C)N=C(C(N)=O)c2ncn(CCCO)c2N1"
> 100 µM

What TGI value was documented for this compound, "N#CC(C#N)=CNC(=S)c1ccncc1" ?
> 100 µM

Further cases:
Item under review: "CCC(=C(c1ccc(OCCCN(C)C)cc1)c1ccc(OCCCN(C)C)cc1)c1ccc(Cl)cc1" . Reported TGI?
2.19 µM

====

- Test system: MDA-MB-435
- Protocol details: NCI tumour cell line growth inhibition, 48 h
Parameter threshold = 7 µM. Response is True when TGI meets or exceeds it, else False.

The following compounds have reported results that may help.
For this compound, is measured TGI 7 µM or higher? "CN(C)CCCN1C(=S)N(CCCN(C)C)c2c3cc(O)ccc3nc3c([N+](=O)[O-])ccc1c23"
True

hey, is TGI for this one >= 7 µM? "O=c1c2cc3c(cc2[nH]c2ncccc12)OCO3"
True

More entries:
I'd appreciate it if you could say whether "CCN(CC)CCNC(=O)c1cn2ncnc(Oc3ccc(NC(=O)Nc4ccc(Cl)c(C(F)(F)F)c4)c(F)c3)c2c1C" has TGI at least equal to 7 µM.
False

hey, is TGI for this one >= 7 µM? CCCCCCCCCCCCCCCCCCNC(=O)[C@H]1CSC(c2cccs2)N1 (some centres undefined)
False

Hello, I need to know if "CN(C)Cc1cc(C(=O)/C=C/c2ccc(O)cc2)cc(CN(C)C)c1O" has measured TGI not below 7 µM. Thanks!
True

Say whether "CNC(=O)c1cc2c(Oc3ccc(NC(=O)C4(C(=O)Nc5ccc(F)cc5)CC4)cc3)ccnc2cc1OC" shows TGI of 7 µM or more.
False

Given "C=CC[C@]12C[C@@H](C(=O)OC)N(C(=O)OC)[C@H]1N(S(=O)(=O)c1ccccc1)c1ccccc12" , state whether its TGI is at least 7 µM.
True

====

- Test system: OVCAR-4 ovarian
- Protocol details: NCI tumour cell line growth inhibition, 48 h
Quantity kind: TGI (µM)
# unit: µM | format: bare number

These solved cases illustrate the format of a correct answer.
Any idea what TGI was measured for "C[C@H]1[C@H](C)CC[C@]2(C(=O)NCCNCCN)CC[C@]3(C)C(=CC[C@@H]4[C@@]5(C)CCC(=O)C(C)(C)[C@@H]5CC[C@]43C)[C@H]12" ?
4

Which TGI reading was recorded for the molecule "O=C(NC12CC3CC(CC(C3)C1)C2)C(=O)c1c[nH]c2ccc(Cl)cc12" ?
56

# input molecule: "CCCn1c(CN(Cc2nc3ccccc3n2CCC)Cc2nc3ccccc3n2CCC)nc2ccccc21" ; wanted: its TGI
26.1

Now examine the next entry.
GET /values?readout=TGI&item= "CC(C)/C(Cl)=N\OC(=O)Nc1ccc(C#N)cc1"
3.24

====

- Tested on: MOLT-4 leukemia
- Protocol details: NCI tumour cell line growth inhibition, 48 h
TGI listing for selected compounds.

Worked set:
Kindly state the measured TGI obtained for "Clc1ccc(-c2nn3c(-c4ccncc4)nnc3s2)cc1" with MOLT-4 leukemia.
> 100 µM

Fill in the recorded TGI for this compound, with MOLT-4 leukemia as test system: "O=C1C=CC(=O)N1Nc1ccc([N+](=O)[O-])cc1[N+](=O)[O-]"
> 75.2 µM

Short answer please: TGI, MOLT-4 leukemia, entry "CSc1c(C)c(C)nn1-c1ccccc1"
> 100 µM

Recall the recorded TGI for "O=P(c1ccccc1)(c1ccccc1)N1O[C@@H](c2ccccc2)C=C[C@H]1c1ccccc1" with MOLT-4 leukemia and state it.
27.5 µM

Further cases:
Lookup: TGI / MOLT-4 leukemia / "O=C(/C=C/c1ccsc1)c1ccsc1"
44.7 µM

What measured TGI is associated with "O=C1C(Cl)=C(Nc2ccccc2)C(=O)c2ccccc21" on MOLT-4 leukemia?
> 100 µM

Field: TGI (MOLT-4 leukemia). Entry: CC(=O)OCC1OC(n2cc([N+](=O)[O-])c(=O)[nH]c2=O)C(OC(C)=O)C(OC(C)=O)C1OC(C)=O (stereo not given)
> 100 µM

For MOLT-4 leukemia, provide TGI of "COC(=O)c1c2c(cc3c1CC1(C3)Cc3cc4c(c(C(=O)OC)c3C1)CCCC4)CCCC2" please.
> 100 µM

What is its TGI for MOLT-4 leukemia? Entry: "CCC(=C(c1ccc(OCCCN(C)C)cc1)c1ccc(OCCCN(C)C)cc1)c1ccc(Cl)cc1"
0.948 µM

Return TGI measured with MOLT-4 leukemia given this compound: "N#C/C(=C\c1cc(Br)c(O)c(Br)c1)c1cccnc1"
> 100 µM

====

- System: EKVX NSCLC
- Protocol details: NCI tumour cell line growth inhibition, 48 h
Listing: GI50 of selected molecules

// fetch EKVX NSCLC GI50 for "CCSc1nc(N)c2cn[nH]c2n1"
51400 nM

Tell me reported GI50 for "CN(C)Cc1c[nH]c2c(NCCN)c3c(c(NCCN)c12)C(=O)c1ccccc1C3=O" , tested with EKVX NSCLC.
2900 nM

# get_value(readout= GI50, system= EKVX NSCLC) for "CC(=O)N[C@H](C(=O)N[C@@H](CCCNC(=N)N)C(=O)N[C@@H](CCCCN)C(=O)N[C@@H](CCCNC(=N)N)C(=O)N[C@]1(C)CCCCCC/C=C\CCC[C@@](C)(C(=O)N[C@@H](CCCNC(=N)N)C(=O)N[C@@H](CCC(=O)O)C(=O)N[C@@H](CC(C)C)C(=O)N[C@H](C(=O)N[C@@H](CCC(=O)O)C(N)=O)C(C)C)NC(=O)[C@H](CCC(N)=O)NC(=O)[C@H](CC(C)C)NC(=O)[C@H](CC(C)C)NC(=O)[C@H](CCCNC(=N)N)NC(=O)[C@H](CCCNC(=N)N)NC(=O)[C@H](CC(C)C)NC1=O)C(C)C"
1750 nM

Then there is this molecule:
Find the measured GI50: item "COc1ccccc1/C=C/C(=O)/C=C/c1ccccc1O" , target or system EKVX NSCLC.
1750 nM

====

- Tested on: UO-31 renal
- Protocol details: NCI tumour cell line growth inhibition, 48 h
Quantity kind: GI50

Look over these answered cases.
What value of GI50 on UO-31 renal does "CCN(CC)CCNC(=O)c1cn2ncnc(Oc3ccc(NC(=O)Nc4ccc(Cl)c(C(F)(F)F)c4)c(F)c3)c2c1C" have?
2.1 µM

For the record "Cc1ncc(C(=O)Nc2ccc(CN3CCN(C)CC3)c(C(F)(F)F)c2)cc1C#Cc1cnc(NC2CC2)c2ncccc12" , what value of GI50 is listed for UO-31 renal?
0.675 µM

Which GI50 is reported with UO-31 renal for this entry: COc1ccc(CC(C)C(C)Cc2ccc(OC)c(OC)c2)cc1OC (stereo not drawn) ?
> 1400 µM

--- query ---
Entry "COc1cc([N+](=O)[O-])c(OC)cc1-c1nc2sc(Cl)cn2c1/C=N/Nc1ccccn1" , system UO-31 renal: what GI50 was measured?
> 50 µM

====

Property: TGI; scope: individual compounds
- Tested on: SN12C renal
- Protocol details: NCI tumour cell line growth inhibition, 48 h

Test system SN12C renal; read-out TGI; what value for COc1nc(C#CCC(C)O)nc(OC)n1 (centres undefined) ?
42.5 µM

Quick check: TGI on SN12C renal, item COC(=O)/C(C#N)=C1\CCC(C(=O)OC)N1C (centres undefined) ?
> 100 µM

Can you look up TGI on SN12C renal for "Nc1c(-c2cccc3ccccc23)c2ccc([N+](=O)[O-])cc2c(=O)n1-c1nc2ccccc2s1" ?
> 100 µM

Give the reported TGI for "CC(=O)N/N=C1\NC(=O)C[C@H]2[C@@H]3CC=C4C[C@@H](OC(C)=O)CC[C@]4(C)[C@H]3CC[C@]12C" (system: SN12C renal).
> 100 µM

Record "Cn1c(/C(C#N)=C/c2ccc3ccccc3c2)cc2ccccc21" : what is its TGI with SN12C renal?
> 100 µM

API: value(readout= TGI, system= SN12C renal, query= "CC(=O)NNc1nc(C)c(C(=O)NNC(=O)C(=O)Nc2nc3ccc([N+](=O)[O-])cc3s2)s1" )
> 100 µM

Requested read-out TGI, target or system SN12C renal, entry "Cn1c([N+](=O)[O-])cnc1/C=C1\Oc2cc(Cl)ccc2C1=O"
6.65 µM

Checklist item: TGI tested on SN12C renal, entry "O=S(=O)(CCOCc1ccc(-c2ccc3ncnc(Nc4ccc(OCc5cccc(F)c5)c(Cl)c4)c3c2)o1)c1ccccc1" , value?
> 25 µM

Now look at this entry.
Lab note: need TGI with SN12C renal for entry "CCN(C(=S)N[C@@H](Cc1ccccc1)C(=O)N[C@@H](CC(C)C)C(=O)OC)c1ccccc1" , please look it up.
> 100 µM
